We begin with a simple list: items and their reported Affinity ELISA CPE mutant ratio (1:9, pH 6.0/7.4).
# systemUnderTest: T1, Axl (Homo sapiens, UniProt P30530)
# T1 sequence (P30530 26-451 limits assumed): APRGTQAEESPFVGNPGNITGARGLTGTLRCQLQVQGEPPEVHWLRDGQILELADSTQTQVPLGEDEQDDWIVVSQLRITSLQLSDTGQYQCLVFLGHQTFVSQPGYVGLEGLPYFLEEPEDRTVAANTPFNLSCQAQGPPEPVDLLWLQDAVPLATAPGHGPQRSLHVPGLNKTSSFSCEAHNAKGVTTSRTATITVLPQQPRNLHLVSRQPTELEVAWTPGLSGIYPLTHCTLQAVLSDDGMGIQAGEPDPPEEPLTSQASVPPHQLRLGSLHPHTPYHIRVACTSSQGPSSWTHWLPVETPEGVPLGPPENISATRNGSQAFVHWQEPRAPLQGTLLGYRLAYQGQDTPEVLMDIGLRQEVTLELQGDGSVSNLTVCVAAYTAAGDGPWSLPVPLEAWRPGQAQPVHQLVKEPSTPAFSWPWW
# testMethodNotes: Affinity ELISA of CPE mutant antibodies for binding to Axl at pH 6.0 over pH 7.4
# assayConditions: light chain variable region mutants; 1:9 dilution
property: Affinity ELISA CPE mutant ratio (1:9, pH 6.0/7.4)

molecule: LC-L096G (antibody, V domains shown) VH: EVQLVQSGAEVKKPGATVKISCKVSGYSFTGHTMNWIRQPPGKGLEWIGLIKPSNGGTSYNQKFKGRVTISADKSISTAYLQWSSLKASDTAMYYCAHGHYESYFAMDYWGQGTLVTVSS VL: DIQMTQSPSSLSASVGDRVTITCKASQDVSSAVAWYQQKPGQAPRLLIYWASTRHTGVPSRFSGSGSGTEFTLTISSLQPDDFATYYCQEHFSTPGTFGQGTKVEIK
endpointValue: 2.436
--
molecule: LC-H091L (antibody, V domains shown) VH: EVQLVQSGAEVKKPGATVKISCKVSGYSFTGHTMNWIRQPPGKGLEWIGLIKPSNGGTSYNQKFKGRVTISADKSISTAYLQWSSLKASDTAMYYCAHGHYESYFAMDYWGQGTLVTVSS VL: DIQMTQSPSSLSASVGDRVTITCKASQDVSSAVAWYQQKPGQAPRLLIYWASTRHTGVPSRFSGSGSGTEFTLTISSLQPDDFATYYCQELFSTPLTFGQGTKVEIK
endpointValue: 2.081
--
molecule: LC-A032L (antibody, V domains shown) VH: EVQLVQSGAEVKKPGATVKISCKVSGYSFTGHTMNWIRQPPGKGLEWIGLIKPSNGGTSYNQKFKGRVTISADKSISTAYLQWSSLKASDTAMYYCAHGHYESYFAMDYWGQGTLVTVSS VL: DIQMTQSPSSLSASVGDRVTITCKASQDVSSLVAWYQQKPGQAPRLLIYWASTRHTGVPSRFSGSGSGTEFTLTISSLQPDDFATYYCQEHFSTPLTFGQGTKVEIK
endpointValue: 2.272
--
molecule: LC-A051P (antibody, V domains shown) VH: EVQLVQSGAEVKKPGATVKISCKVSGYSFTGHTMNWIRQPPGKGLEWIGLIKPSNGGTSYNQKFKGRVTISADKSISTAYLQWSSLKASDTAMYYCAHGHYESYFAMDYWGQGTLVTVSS VL: DIQMTQSPSSLSASVGDRVTITCKASQDVSSAVAWYQQKPGQAPRLLIYWPSTRHTGVPSRFSGSGSGTEFTLTISSLQPDDFATYYCQEHFSTPLTFGQGTKVEIK
endpointValue: 1.569
--
molecule: LC-A051I (antibody, V domains shown) VH: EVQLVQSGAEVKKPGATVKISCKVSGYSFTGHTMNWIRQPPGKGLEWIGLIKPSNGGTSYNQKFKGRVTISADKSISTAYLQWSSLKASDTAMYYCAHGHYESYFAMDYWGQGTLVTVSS VL: DIQMTQSPSSLSASVGDRVTITCKASQDVSSAVAWYQQKPGQAPRLLIYWISTRHTGVPSRFSGSGSGTEFTLTISSLQPDDFATYYCQEHFSTPLTFGQGTKVEIK
endpointValue: 2.139
--
molecule: LC-V029D (antibody, V domains shown) VH: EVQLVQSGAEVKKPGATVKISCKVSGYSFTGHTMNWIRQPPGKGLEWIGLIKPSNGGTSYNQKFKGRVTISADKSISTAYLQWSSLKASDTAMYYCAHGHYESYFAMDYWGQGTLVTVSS VL: DIQMTQSPSSLSASVGDRVTITCKASQDDSSAVAWYQQKPGQAPRLLIYWASTRHTGVPSRFSGSGSGTEFTLTISSLQPDDFATYYCQEHFSTPLTFGQGTKVEIK
endpointValue: 2.679
--
molecule: LC-P095C (antibody, V domains shown) VH: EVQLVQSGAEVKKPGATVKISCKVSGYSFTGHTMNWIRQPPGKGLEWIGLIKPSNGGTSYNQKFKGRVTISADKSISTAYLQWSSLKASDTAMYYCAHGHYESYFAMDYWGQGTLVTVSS VL: DIQMTQSPSSLSASVGDRVTITCKASQDVSSAVAWYQQKPGQAPRLLIYWASTRHTGVPSRFSGSGSGTEFTLTISSLQPDDFATYYCQEHFSTCLTFGQGTKVEIK
endpointValue: 2.630
--
molecule: LC-F092D (antibody, V domains shown) VH: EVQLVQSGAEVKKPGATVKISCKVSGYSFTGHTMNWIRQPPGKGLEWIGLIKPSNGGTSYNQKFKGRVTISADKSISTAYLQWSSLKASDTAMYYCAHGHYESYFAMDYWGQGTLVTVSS VL: DIQMTQSPSSLSASVGDRVTITCKASQDVSSAVAWYQQKPGQAPRLLIYWASTRHTGVPSRFSGSGSGTEFTLTISSLQPDDFATYYCQEHDSTPLTFGQGTKVEIK
endpointValue: 2.940
--
molecule: LC-A034N (antibody, V domains shown) VH: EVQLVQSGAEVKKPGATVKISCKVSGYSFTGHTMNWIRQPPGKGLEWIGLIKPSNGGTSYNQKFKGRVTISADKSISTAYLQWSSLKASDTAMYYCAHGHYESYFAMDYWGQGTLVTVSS VL: DIQMTQSPSSLSASVGDRVTITCKASQDVSSAVNWYQQKPGQAPRLLIYWASTRHTGVPSRFSGSGSGTEFTLTISSLQPDDFATYYCQEHFSTPLTFGQGTKVEIK
endpointValue: 2.403
--
molecule: LC-T094C (antibody, V domains shown) VH: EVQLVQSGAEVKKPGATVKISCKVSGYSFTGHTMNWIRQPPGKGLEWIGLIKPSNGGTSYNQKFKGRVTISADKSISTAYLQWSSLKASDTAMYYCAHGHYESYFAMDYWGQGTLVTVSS VL: DIQMTQSPSSLSASVGDRVTITCKASQDVSSAVAWYQQKPGQAPRLLIYWASTRHTGVPSRFSGSGSGTEFTLTISSLQPDDFATYYCQEHFSCPLTFGQGTKVEIK
endpointValue: 1.768

FYI, the data here is from patent US20250276075A1.
